System tested: MeCP2 (full-length) (human, UniProt P51608 1-486)
Sequence (P51608 whole entry): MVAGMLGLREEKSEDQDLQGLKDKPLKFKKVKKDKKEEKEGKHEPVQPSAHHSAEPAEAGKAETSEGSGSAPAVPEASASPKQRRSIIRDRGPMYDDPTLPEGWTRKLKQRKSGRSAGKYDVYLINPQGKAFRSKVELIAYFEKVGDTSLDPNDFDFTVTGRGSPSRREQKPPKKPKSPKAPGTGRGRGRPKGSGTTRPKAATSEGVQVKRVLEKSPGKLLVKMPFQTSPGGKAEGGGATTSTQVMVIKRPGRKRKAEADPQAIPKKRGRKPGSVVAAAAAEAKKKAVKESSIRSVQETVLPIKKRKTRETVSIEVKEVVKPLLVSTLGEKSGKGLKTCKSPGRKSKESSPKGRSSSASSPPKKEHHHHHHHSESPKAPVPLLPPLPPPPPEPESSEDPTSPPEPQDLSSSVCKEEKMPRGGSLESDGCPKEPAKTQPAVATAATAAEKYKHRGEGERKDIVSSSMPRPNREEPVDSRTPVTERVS
Procedure text: fluorescence anisotropy
Observation type: Kd (nM)
Provide the reading as a plain figure in nM.

Req: Fill in: Kd of CpG 20 bp duplex (-/-) (dsDNA, none) DNA 1: TCTGGAACGGAATTCTTCTA DNA 2: TAGAAGAATTCCGTTCCAGA is ___
Resp: 56.5
